// data source = ChEMBL document CHEMBL3046004

Test system: Helicoverpa armigera
assay_remarks: Resistance factor, ratio of LD50 for fourth-instar larval stage of Helicoverpa armigera field strain Ngong to LD50 for fourth-instar larval stage of pyrethroid-susceptible Helicoverpa armigera laboratory strain BK-77
Assay type: functional
readout_name: Ratio
Give bare numbers.

Solved entries (count: 6):
Data request: Quick one: Ratio for CC1(C)C(C=C(Cl)Cl)C1C(=O)OC(C#N)c1cccc(Oc2ccccc2)c1 (configuration not stated) ?
Data returned: 240

Data request: Quick one: Ratio for CCOc1ccc(C(C)(C)COCc2cccc(Oc3ccccc3)c2)cc1 ?
Data returned: 2

Data request: Quick one: Ratio for Clc1ccc(C(c2ccc(Cl)cc2)C(Cl)(Cl)Cl)cc1 ?
Data returned: 1.4

Data request: Quick one: Ratio for CCCSP(=O)(OCC)Oc1ccc(Br)cc1Cl (configuration not stated) ?
Data returned: 4

Data request: Quick one: Ratio for O=S1OCC2C(CO1)C1(Cl)C(Cl)=C(Cl)C2(Cl)C1(Cl)Cl (configuration not stated) [ENDOSULFAN] ?
Data returned: 0.1

Data request: Quick one: Ratio for COC(=O)N(C(=O)N1CO[C@@]2(C(=O)OC)Cc3cc(Cl)ccc3C2=N1)c1ccc(OC(F)(F)F)cc1 ?
Data returned: 1.4

New cases:
Data request: Quick one: Ratio for CC1(C)[C@H](C(=O)O[C@H](C#N)c2cccc(Oc3ccccc3)c2)[C@@H]1C=C(Br)Br ?
Data returned: 134

====

System: Helicoverpa armigera
assay_remarks: Insecticidal activity against fourth-instar larval stage of Helicoverpa armigera field strain Ngong isolated from cotton plant assessed as mortality applied topically onto thorax measured after 48 hr
Type: functional
Field: LD50. Provide a value for each of the compounds that follow.
Give bare numbers, in microgAi/g.

Solved entries (count: 3):
Data request: Quick one: LD50 for CC1(C)[C@H](C(=O)O[C@H](C#N)c2cccc(Oc3ccccc3)c2)[C@@H]1C=C(Br)Br ?
Data returned: 6.7

Data request: Quick one: LD50 for CCCSP(=O)(OCC)Oc1ccc(Br)cc1Cl (centres undefined) ?
Data returned: 18.5

Data request: Quick one: LD50 for CC1(C)C(C=C(Cl)Cl)C1C(=O)OC(C#N)c1cccc(Oc2ccccc2)c1 (centres undefined) ?
Data returned: 112.6

Next:
Data request: Quick one: LD50 for O=S1OCC2C(CO1)C1(Cl)C(Cl)=C(Cl)C2(Cl)C1(Cl)Cl (centres undefined) [ENDOSULFAN] ?
Data returned: 34

====

Tested on: Helicoverpa armigera
assay_remarks: Resistance factor, ratio of LD50 for fourth-instar larval stage of pyrethroid-resistance Helicoverpa armigera laboratory strain GS-RR06 to LD50 for fourth-instar larval stage of pyrethroid-susceptible Helicoverpa armigera laboratory strain BK-77
Type: functional
readout_name: Ratio

Solved entries (count: 5):
Data request: Quick one: Ratio for Clc1ccc(C(c2ccc(Cl)cc2)C(Cl)(Cl)Cl)cc1 ?
Data returned: 1

Data request: Quick one: Ratio for O=S1OCC2C(CO1)C1(Cl)C(Cl)=C(Cl)C2(Cl)C1(Cl)Cl (configuration not stated) [ENDOSULFAN] ?
Data returned: 0.7

Data request: Quick one: Ratio for COC(=O)N(C(=O)N1CO[C@@]2(C(=O)OC)Cc3cc(Cl)ccc3C2=N1)c1ccc(OC(F)(F)F)cc1 ?
Data returned: 1

Data request: Quick one: Ratio for CC1(C)C(C=C(Cl)Cl)C1C(=O)OC(C#N)c1cccc(Oc2ccccc2)c1 (configuration not stated) ?
Data returned: 1529

Data request: Quick one: Ratio for CC1(C)[C@H](C(=O)O[C@H](C#N)c2cccc(Oc3ccccc3)c2)[C@@H]1C=C(Br)Br ?
Data returned: 2972

Please state, for each entry, its recorded Ratio.
1. CCCSP(=O)(OCC)Oc1ccc(Br)cc1Cl (configuration not stated)
2. CCOc1ccc(C(C)(C)COCc2cccc(Oc3ccccc3)c2)cc1

Data returned:
3.9
2
